- target_system: KCNT1 (KNa1.1, Slack) (Homo sapiens)
- Sequence (Q5JUK3 1-1230): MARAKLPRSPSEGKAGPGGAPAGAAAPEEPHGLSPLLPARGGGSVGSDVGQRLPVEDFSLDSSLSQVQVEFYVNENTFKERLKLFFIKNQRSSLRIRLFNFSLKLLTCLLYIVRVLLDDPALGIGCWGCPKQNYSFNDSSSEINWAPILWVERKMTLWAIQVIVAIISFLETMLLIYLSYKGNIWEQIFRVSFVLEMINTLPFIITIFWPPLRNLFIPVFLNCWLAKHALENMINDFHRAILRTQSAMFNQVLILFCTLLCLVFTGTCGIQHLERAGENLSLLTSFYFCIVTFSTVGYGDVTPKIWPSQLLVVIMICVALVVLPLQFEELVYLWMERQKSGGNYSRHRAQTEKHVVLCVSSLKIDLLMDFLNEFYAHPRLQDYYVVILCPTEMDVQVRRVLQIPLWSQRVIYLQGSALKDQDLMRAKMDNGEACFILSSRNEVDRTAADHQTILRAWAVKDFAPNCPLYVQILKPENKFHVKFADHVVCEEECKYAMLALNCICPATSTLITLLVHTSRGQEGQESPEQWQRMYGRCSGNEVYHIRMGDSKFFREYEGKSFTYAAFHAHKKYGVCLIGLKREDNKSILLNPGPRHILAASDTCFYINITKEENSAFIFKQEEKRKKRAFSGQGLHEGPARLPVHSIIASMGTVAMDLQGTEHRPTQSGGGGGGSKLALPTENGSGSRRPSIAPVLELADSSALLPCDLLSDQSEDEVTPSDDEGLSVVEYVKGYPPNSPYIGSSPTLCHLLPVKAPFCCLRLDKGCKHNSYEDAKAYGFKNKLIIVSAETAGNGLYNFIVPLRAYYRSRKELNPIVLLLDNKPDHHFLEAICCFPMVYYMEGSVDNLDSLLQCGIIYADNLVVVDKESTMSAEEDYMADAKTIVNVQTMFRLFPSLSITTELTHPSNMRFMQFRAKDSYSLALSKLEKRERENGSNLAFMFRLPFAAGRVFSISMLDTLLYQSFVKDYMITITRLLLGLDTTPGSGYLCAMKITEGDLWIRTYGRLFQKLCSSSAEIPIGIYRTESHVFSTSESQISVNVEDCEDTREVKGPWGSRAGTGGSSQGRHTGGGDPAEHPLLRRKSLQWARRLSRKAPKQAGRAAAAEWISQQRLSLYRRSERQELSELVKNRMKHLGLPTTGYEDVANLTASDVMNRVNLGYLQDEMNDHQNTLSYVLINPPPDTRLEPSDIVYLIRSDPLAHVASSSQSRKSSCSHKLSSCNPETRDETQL
- measurement_protocol: KCNT1-WT-Basal Patch Clamp Assay
- test_settings: tetracycline inducible cell line (HEK-TREX); SyncroPatch 384PE automated patch clamp, perforated patch mode, room temperature, step from -80 mV to 0 mV
- Protocol: KCNT1-WT-Basal—Patch Clamp Assay Inhibition of KCNT1 (KNa1.1, Slack) was evaluated using a tetracycline inducible cell line (HEK-TREX). Currents were recorded using the SyncroPatch 384PE automated, patch clamp system. […] Current were recorded in perforated patch mode (10 μM escin) from a population of cells. […] Currents were recorded at room temperature. […] Mean current was measured during the step to 0 mV. […]
pIC50: −log10 of the molar value.
parameter: pIC50

C[C@H](NC(=O)C1CCN(C)CC1)c1nc(-c2ccnc(C(F)(F)F)c2)no1 = ≤ 4.70
C[C@H](NC(=O)N1CCc2ccccc2C1)c1nc(-c2ccnc(C(F)(F)F)c2)no1 = ≥ 6.00
C[C@H](NC(=O)C1CCOCC1)c1nc(-c2ccnc(C(F)(F)F)c2)no1 = ≤ 4.70

Next compound, please.
The measured pIC50 that `C[C@H](NC(=O)[C@H]1CC[C@@H](C)CC1)c1nc(-c2ccnc(C(F)(F)F)c2)no1` showed for KCNT1 (KNa1.1, Slack) (Homo sapiens) is ≥ 6.00
